Where these numbers come from: patent EP4624457A1

Subject Of Test: muscle (α1)2βγδ nAChR subtype (Torpedo marmorata, UniProt P02711+Q6S3H8+Q6S3H9)
Sequence (P02711 25-461): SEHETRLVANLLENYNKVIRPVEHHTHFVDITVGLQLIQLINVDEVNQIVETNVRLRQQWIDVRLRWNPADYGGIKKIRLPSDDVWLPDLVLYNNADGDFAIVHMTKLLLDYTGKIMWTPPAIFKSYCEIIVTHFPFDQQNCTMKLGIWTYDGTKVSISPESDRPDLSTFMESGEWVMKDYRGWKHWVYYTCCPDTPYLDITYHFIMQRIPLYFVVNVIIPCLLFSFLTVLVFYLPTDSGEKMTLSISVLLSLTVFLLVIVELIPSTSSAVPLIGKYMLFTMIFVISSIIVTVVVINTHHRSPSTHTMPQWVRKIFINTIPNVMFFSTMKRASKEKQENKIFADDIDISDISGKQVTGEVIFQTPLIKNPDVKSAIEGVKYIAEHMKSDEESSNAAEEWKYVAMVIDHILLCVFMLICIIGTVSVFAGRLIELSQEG
Sequence (Q6S3H9 entry or part of it): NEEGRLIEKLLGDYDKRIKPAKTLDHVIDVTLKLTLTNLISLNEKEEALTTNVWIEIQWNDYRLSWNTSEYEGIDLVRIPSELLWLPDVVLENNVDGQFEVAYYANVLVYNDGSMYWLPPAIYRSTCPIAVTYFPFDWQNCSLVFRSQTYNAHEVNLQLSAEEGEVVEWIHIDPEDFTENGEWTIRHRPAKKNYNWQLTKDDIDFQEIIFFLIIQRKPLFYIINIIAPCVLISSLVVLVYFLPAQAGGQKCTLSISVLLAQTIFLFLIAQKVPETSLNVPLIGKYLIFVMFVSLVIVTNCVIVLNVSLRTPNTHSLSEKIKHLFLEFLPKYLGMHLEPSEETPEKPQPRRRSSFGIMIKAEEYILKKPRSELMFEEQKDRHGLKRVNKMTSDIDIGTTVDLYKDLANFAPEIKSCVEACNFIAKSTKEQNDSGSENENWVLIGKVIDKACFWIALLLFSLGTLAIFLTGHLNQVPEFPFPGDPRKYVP
Sequence (Q6S3H8 entry or part of it): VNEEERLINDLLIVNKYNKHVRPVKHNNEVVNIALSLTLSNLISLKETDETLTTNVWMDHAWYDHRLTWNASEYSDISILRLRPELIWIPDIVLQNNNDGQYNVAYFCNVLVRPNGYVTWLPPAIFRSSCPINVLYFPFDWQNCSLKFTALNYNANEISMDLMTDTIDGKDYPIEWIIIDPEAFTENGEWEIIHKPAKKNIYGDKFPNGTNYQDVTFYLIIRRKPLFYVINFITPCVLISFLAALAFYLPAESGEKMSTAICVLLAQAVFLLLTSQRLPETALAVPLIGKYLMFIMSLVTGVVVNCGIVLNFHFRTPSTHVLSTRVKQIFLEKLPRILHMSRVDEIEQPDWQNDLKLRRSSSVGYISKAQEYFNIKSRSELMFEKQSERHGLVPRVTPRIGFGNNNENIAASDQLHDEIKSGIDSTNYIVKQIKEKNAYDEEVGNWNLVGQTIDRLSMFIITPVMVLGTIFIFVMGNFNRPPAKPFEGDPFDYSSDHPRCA
Sequence (Q6S3I0 entry or part of it, further chain): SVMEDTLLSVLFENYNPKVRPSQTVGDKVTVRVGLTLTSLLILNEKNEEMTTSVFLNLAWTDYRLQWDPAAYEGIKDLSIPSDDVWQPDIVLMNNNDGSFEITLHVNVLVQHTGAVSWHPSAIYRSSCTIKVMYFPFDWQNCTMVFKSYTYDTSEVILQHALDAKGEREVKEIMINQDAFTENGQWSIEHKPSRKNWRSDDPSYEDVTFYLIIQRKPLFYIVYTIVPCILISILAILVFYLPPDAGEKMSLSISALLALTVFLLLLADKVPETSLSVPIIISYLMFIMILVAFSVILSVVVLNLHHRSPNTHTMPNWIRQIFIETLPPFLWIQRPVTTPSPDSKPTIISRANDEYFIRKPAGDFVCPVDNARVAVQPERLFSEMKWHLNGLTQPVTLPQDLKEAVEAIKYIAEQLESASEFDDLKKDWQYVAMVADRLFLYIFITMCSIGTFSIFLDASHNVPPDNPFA
Method Summary: Two-electrode voltage clamp electrophysiology, antagonistic activity on Xenopus laevis oocytes having incorporated Torpedo muscle-type nAChR
Assay type: cell-based
Condition Label: TEVC, value (95% CI), toxin purified by the applicant, Figure 5, read-out: nAChR subtype (nM; 95% CI) α12β1γδ (Torpedo)
Measurement Kind: IC50 (nM)
One number for each entry, in nM.

*Q* IC50 lookup needed for C=CC1=C[C@@H]2[C@@H]3O[C@]4(CC[C@H](O4)[C@@H](C)C[C@@H](O)C3=O)C[C@H](O)C3=NCC[C@@]32CC1 , thanks.
*A* 11900
